Target: CDK2/CyclinA (Homo sapiens)
Test: Kinase assay determining CDK2/CyclinA activity
Settings: read-out: CDK2 (activity range)
pIC50: −log10 of the molar value.
The entries below are paired with their reported pIC50.

Recorded results for 4 compounds are shown here.
| entrySmiles | assayTarget | pIC50 |
| --- | --- | --- |
| COc1ccccc1-c1cc(Nc2ccc(C(=O)Nc3ccc(C(C)C)cc3)cc2)ncn1 | CDK2/CyclinA (Homo sapiens) | 3.60 to 5.00 |
| COc1ccccc1-c1cc(Nc2ccc(-c3nc4ccccc4o3)cc2)ncn1 | CDK2/CyclinA (Homo sapiens) | 3.60 to 5.00 |
| COc1ccccc1-c1cc(Nc2ccc(NC(=O)C3(N)CCCC3)cc2)ncn1 | CDK2/CyclinA (Homo sapiens) | 5.00 to 6.00 |
| COc1ccccc1-c1cc(Nc2ccc(NC(=O)[C@@H](N)C(C)C)cc2)ncn1 | CDK2/CyclinA (Homo sapiens) | 5.00 to 6.00 |

Data request: Can you look up pIC50 on CDK2/CyclinA (Homo sapiens) for `Cc1ccc(S(=O)(=O)Nc2ccc(Nc3cc(Cl)ncn3)cc2)cc1` ?
Data returned: 5.00 to 6.00

Data request: Can you look up pIC50 on CDK2/CyclinA (Homo sapiens) for `Nc1ccc(C(=O)Nc2ccc(Nc3cc(/C=C/c4ccccc4)ncn3)cc2)cc1` ?
Data returned: 3.60 to 5.00

----------
Target: CDK9/Cyclin T1 (Homo sapiens, UniProt P50750)
Sequence (P50750 whole entry): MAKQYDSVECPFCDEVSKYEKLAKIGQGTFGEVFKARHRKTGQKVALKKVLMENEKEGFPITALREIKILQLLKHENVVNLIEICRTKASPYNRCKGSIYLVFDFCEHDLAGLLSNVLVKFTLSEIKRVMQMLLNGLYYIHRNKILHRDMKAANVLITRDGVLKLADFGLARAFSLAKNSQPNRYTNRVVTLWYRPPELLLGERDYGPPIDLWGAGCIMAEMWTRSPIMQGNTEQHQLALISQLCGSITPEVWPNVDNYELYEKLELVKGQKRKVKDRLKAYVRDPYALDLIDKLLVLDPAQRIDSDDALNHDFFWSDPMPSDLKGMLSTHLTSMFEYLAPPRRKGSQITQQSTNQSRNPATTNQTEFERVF
Sequence (O60563 whole entry partner): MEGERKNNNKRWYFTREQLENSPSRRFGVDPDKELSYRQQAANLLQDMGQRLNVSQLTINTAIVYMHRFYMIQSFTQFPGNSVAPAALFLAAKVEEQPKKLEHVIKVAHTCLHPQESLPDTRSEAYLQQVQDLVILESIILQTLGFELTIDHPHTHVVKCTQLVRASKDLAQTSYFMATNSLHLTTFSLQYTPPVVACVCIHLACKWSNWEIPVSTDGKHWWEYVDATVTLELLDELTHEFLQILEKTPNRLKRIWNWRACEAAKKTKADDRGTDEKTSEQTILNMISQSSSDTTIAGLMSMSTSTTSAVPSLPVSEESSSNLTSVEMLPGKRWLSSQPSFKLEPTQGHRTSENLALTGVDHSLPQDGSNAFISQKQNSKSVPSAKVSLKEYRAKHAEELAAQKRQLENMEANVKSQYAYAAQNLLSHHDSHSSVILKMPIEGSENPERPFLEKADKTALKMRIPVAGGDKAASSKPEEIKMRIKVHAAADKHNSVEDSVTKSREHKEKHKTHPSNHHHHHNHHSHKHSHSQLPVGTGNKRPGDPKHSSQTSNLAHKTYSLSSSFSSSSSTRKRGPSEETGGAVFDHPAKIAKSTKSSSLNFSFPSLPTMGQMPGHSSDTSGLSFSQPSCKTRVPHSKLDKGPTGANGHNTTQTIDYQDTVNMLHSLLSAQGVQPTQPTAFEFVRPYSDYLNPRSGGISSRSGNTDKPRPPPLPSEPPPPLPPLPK
Assay: Kinase assay using CDK9/Cyclin T1
Details: read-out: CDK9 (activity range)
pIC50: −log10 of the molar value.
quantityKind: pIC50

Recorded results for 8 molecules are shown here.
| entrySmiles | pIC50 |
| --- | --- |
| COc1ccccc1-c1cc(Nc2ccc(N3CCCC3=O)cc2)ncn1 | 6.00 to 9.00 |
| O=C(Nc1ccc(Nc2cc(-c3ccccc3CO)ncn2)cc1)[C@@H]1CCCCN1 | 5.00 to 6.00 |
| COc1ccccc1-c1cc(Nc2ccc(C(=O)NC(C)(C)C)cc2)ncn1 | 5.00 to 6.00 |
| COC(=O)/C=C/c1cccc(-c2cc(Nc3ccc(C)c(NS(C)(=O)=O)c3)ncn2)c1 | 5.00 to 6.00 |
| Nc1cccc(-c2cc(NCCc3ccncc3)ncn2)c1 | 5.00 to 6.00 |
| COc1ccccc1-c1cc(Nc2ccc(C(=O)Nc3ccc(C(C)C)cc3)cc2)ncn1 | 5.00 to 6.00 |
| COC(=O)CN(c1ccc(Nc2cc(-c3ccc(O)cc3)ncn2)cc1)S(=O)(=O)c1ccc(C)cc1 | 5.00 to 6.00 |
| CCc1ccccc1-c1cc(Nc2ccc(NC(=O)C(C)(C)C)cc2)ncn1 | 3.60 to 5.00 |

Data request: Can you look up pIC50 on CDK9/Cyclin T1 (Homo sapiens, UniProt P50750) for `CC(=O)Nc1ccc(-c2cc(Nc3ccc(NC(=O)[C@@H]4CCCCN4)cc3)ncn2)cc1` ?
Data returned: 5.00 to 6.00

Data request: Can you look up pIC50 on CDK9/Cyclin T1 (Homo sapiens, UniProt P50750) for `Cc1ccc(S(=O)(=O)Nc2ccc(Nc3cc(-c4ccc(CCC(=O)O)cc4)ncn3)cc2)cc1` ?
Data returned: 3.60 to 5.00

----------
Target: CDK9/Cyclin T1 (Homo sapiens)
Assay: Kinase assay using CDK9/Cyclin T1
Conditions: read-out: CDK9 (activity range)
quantityKind: IC50

| entrySmiles | assayTarget | IC50 |
| --- | --- | --- |
| Cc1ccc(Nc2cc(-c3ccccc3OCc3ccccc3)ncn2)cc1NS(C)(=O)=O | CDK9/Cyclin T1 (Homo sapiens) | 0.001 to 1 µM |

Data request: So what does the record say about IC50 for `COc1ccccc1-c1cc(Nc2ccc(NC(=O)NC(C)(C)C)cc2)ncn1` ?
Data returned: 0.001 to 1 µM

Data request: So what does the record say about IC50 for `COc1ccccc1-c1cc(N(C)c2ccc(N)cc2)ncn1` ?
Data returned: 1 to 10 µM

----------
Biological target: CDK2/CyclinA (Homo sapiens, UniProt P24941)
Construct: purchased Proqinase
Test: Kinase assay determining CDK2/CyclinA activity
Type: biochemical
Conditions: read-out: CDK2 (activity range)
pIC50: −log10 of the molar value.
The entries below are paired with their reported pIC50.

| molecule | measuredValue |
| --- | --- |
| COc1ccccc1-c1cc(Nc2ccc(NS(=O)(=O)C(C)C)cc2)ncn1 [(153)] | 6.00 to 9.00 |
| CN[C@H](C(=O)Nc1ccc(Nc2cc(-c3ccccc3OC)ncn2)cc1)c1ccccc1 [(82)] | 5.00 to 6.00 |
| CC(C)Oc1ccccc1-c1cc(NCCc2ccncc2)ncn1 [(99)] | 5.00 to 6.00 |
| Nc1ccc(C(=O)Nc2ccc(Nc3cc(-c4cccs4)ncn3)cc2)cc1 [(77)] | 3.60 to 5.00 |

Data request: So what does the record say about pIC50 for Nc1ccc(C(=O)Nc2ccc(Nc3cc(-c4ccccc4O)ncn3)cc2)cc1 [(151)] ?
Data returned: 3.60 to 5.00

Data request: So what does the record say about pIC50 for COC(=O)/C=C/c1cccc(-c2cc(Nc3ccc(C)c(NS(C)(=O)=O)c3)ncn2)c1 [(182)] ?
Data returned: 5.00 to 6.00

Data request: So what does the record say about pIC50 for Nc1ccc(C(=O)Nc2ccc(Nc3cc(-c4ccccc4)ncn3)cc2)cc1 [(76)] ?
Data returned: 3.60 to 5.00

----------
Molecular target: CDK9/Cyclin T1 (Homo sapiens)
Assay: Kinase assay using CDK9/Cyclin T1
Details: read-out: CDK9 (activity range)
The entries below are paired with their reported IC50.

| molecule | measuredValue |
| --- | --- |
| COc1ncccc1-c1cc(Nc2ccc(C)c(NS(C)(=O)=O)c2)ncn1 | 0.001 to 1 µM |

Data request: So what does the record say about IC50 for `Nc1ccc(C(=O)Nc2ccc(Nc3cc(/C=C/c4ccccc4)ncn3)cc2)cc1` ?
Data returned: 10 to 250 µM

Data request: So what does the record say about IC50 for `O=Cc1cccc(-c2cc(Nc3ccc(NC(=O)[C@@H]4CCCCN4)cc3)ncn2)c1` ?
Data returned: 1 to 10 µM

----------
Target: CDK2/CyclinA (Homo sapiens, UniProt P24941)
Assay: Kinase assay determining CDK2/CyclinA activity
Settings: read-out: CDK2 (activity range)
The entries below are paired with their reported IC50.

Recorded results for 5 compounds are shown here.
| compound | assayTarget | IC50 |
| --- | --- | --- |
| COc1ccccc1-c1cc(Nc2ccc(NC(=O)c3ccc4ccccc4n3)cc2)ncn1 | CDK2/CyclinA (Homo sapiens, UniProt P24941) | 10 to 250 µM |
| COc1ccccc1-c1cc(Nc2ccc(NS(=O)(=O)c3ccc(C(C)C)cc3)cc2)ncn1 | CDK2/CyclinA (Homo sapiens, UniProt P24941) | 1 to 10 µM |
| COc1ccccc1-c1cc(Nc2ccc(NC(=O)c3ccc4c(c3)OCO4)cc2)ncn1 | CDK2/CyclinA (Homo sapiens, UniProt P24941) | 1 to 10 µM |
| COc1ccccc1-c1cc(Nc2ccc(NC(=O)C3(N)CCCCC3)cc2)ncn1 | CDK2/CyclinA (Homo sapiens, UniProt P24941) | 1 to 10 µM |
| COc1ccccc1-c1cc(Nc2ccc(NS(=O)(=O)c3ccc(-c4ccccc4)cc3)cc2)ncn1 | CDK2/CyclinA (Homo sapiens, UniProt P24941) | 1 to 10 µM |

Data request: Can you look up IC50 on CDK2/CyclinA (Homo sapiens, UniProt P24941) for CC(C)Oc1ccccc1-c1cc(Nc2ccc(C(=O)N[C@@H]3CCCC[C@H]3N)cc2)ncn1 (racemic) ?
Data returned: 1 to 10 µM

----------
Target: CDK9/Cyclin T1 (Homo sapiens, UniProt P50750)
Assay: Kinase assay using CDK9/Cyclin T1
Conditions: read-out: CDK9 (activity range)
pIC50: −log10 of the molar value.
The entries below are paired with their reported pIC50.

| compound | measuredValue |
| --- | --- |
| CC(C)Oc1ccccc1-c1cc(Nc2ccc(C(=O)N[C@@H]3CCCC[C@H]3N)cc2)ncn1 (racemic) | 6.00 to 9.00 |
| COc1ccccc1-c1cc(Nc2ccc(NC(C)=O)cc2)ncn1 | 6.00 to 9.00 |
| Cc1ccc(Nc2cc(-c3ccc(CO)cc3)ncn2)cc1NS(C)(=O)=O | 5.00 to 6.00 |

Data request: So what does the record say about pIC50 for `O=C(Nc1ccc(Nc2cc(-c3ccc(Oc4ccccc4)cc3)ncn2)cc1)[C@@H]1CCCCN1` ?
Data returned: 6.00 to 9.00

Data request: So what does the record say about pIC50 for `CC(C)(C)C(=O)Nc1ccc(Nc2cc(-c3cccc(C(=O)O)c3)ncn2)cc1` ?
Data returned: 3.60 to 5.00

Data request: So what does the record say about pIC50 for `COc1ccccc1-c1cc(Nc2ccc(NC(=O)c3ccc4c(c3)OCO4)cc2)ncn1` ?
Data returned: 6.00 to 9.00

Data request: So what does the record say about pIC50 for `Cc1ccc(Nc2cc(-c3ccccc3)ncn2)cc1NS(C)(=O)=O` ?
Data returned: 6.00 to 9.00

Data request: So what does the record say about pIC50 for `COc1ccc(-c2cc(Nc3ccc(N)cc3)nc(C)n2)cc1` ?
Data returned: 3.60 to 5.00

Data request: So what does the record say about pIC50 for `COc1ccc(Cl)cc1-c1cc(Nc2ccc(NC(=O)c3ccc(N)cc3)cc2)ncn1` ?
Data returned: 5.00 to 6.00

Data request: So what does the record say about pIC50 for `COc1ccccc1-c1cc(Nc2ccc(-c3nc4ccccc4o3)cc2)ncn1` ?
Data returned: 3.60 to 5.00

Data request: So what does the record say about pIC50 for `COc1cccc(-c2cc(Nc3ccc(NC(=O)[C@@H]4CCCCN4)cc3)ncn2)c1OC` ?
Data returned: 5.00 to 6.00

Data request: So what does the record say about pIC50 for `COc1cccc(-c2cc(Nc3ccc(C)c(NS(C)(=O)=O)c3)ncn2)c1` ?
Data returned: 5.00 to 6.00

Data request: So what does the record say about pIC50 for `COc1ccccc1-c1cc(Nc2ccc(NC(=O)[C@@H]3CCN3)cc2)ncn1` ?
Data returned: 6.00 to 9.00

Data request: So what does the record say about pIC50 for `CSc1ccccc1-c1cc(Nc2ccc(NC(=O)[C@@H]3CCCCN3)cc2)ncn1` ?
Data returned: 6.00 to 9.00

Data request: So what does the record say about pIC50 for `Cc1ccc(Nc2cc(-c3ccccc3OC(C)C)ncn2)cc1NS(C)(=O)=O` ?
Data returned: 6.00 to 9.00
